- test-system: BRD2 BD1 (Homo sapiens)
- Construct: BRD2 BD1, BRD3 BD1 and BRD4 BD1 (Cisbio); purchased Cisbio
- Sequence (P25440 74-180 limits assumed): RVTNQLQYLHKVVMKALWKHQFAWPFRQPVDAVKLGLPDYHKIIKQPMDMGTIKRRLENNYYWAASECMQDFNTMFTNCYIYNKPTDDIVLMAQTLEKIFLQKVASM
- experiment-notes: Binding assay, BRD2 BD1 to acetylated histone H4 Peptide-Biotin (EPIgeneous Binding Domain Kit A)
- run-parameters: test compound at 300 nmol/L; read-out: Binding inhibition percentage BRD2 BD1
measure: inhibition at 0.3 µM
Please provide the amount together with its unit, number first.

structure_smiles_string=CCn1c(=O)cc(N2CCOCC2)c2cc(-c3nccn3-c3ccccc3)ccc21 measure="inhibition at 0.3 µM" result=84%

// sample Cc1ccc(N(C)C(=O)c2ccc3c(c2)c(C2CCN(C)CC2)cc(=O)n3C)cc1 , its inhibition at 0.3 µM was 94%

// sample CCn1c(=O)cc(C2CC2)c2cc(-n3c(=O)[nH]c(=O)n3-c3ccccc3)ccc21 , its inhibition at 0.3 µM was 93%

// sample CCn1c(=O)cc(N2CCOCC2)c2cc(-n3c(-c4ccccc4)c[nH]c3=O)ccc21 , its inhibition at 0.3 µM was 91%

// sample CCn1c(=O)cc(N2CCOCC2)c2cc(-n3c(-c4ccc(C(F)(F)F)cc4)cn(C)c3=O)ccc21 , its inhibition at 0.3 µM was 87%

// sample CCn1c(=O)cc(C2CC2)c2cc(-n3c(-c4ccc(Cl)cc4)cn(C)c3=O)ccc21 , its inhibition at 0.3 µM was 36%

// sample CCn1c(=O)cc(N2CCOCC2)c2cc(-n3cc(C)nc3-c3ccccc3)ccc21 , its inhibition at 0.3 µM was 84%

// sample CCn1c(=O)cc(C2CC2)c2cc(-n3c(-c4ccc(Cl)cc4)c[nH]c3=O)ccc21 , its inhibition at 0.3 µM was 60%

// sample CCn1cc(-c2ccccc2)n(-c2ccc3c(c2)c(N2CCOCC2)cc(=O)n3CC)c1=O , its inhibition at 0.3 µM was 91%

// sample CCn1c(=O)cc(N2CCOCC2)c2cc(-n3ccnc3-c3ccccc3)ccc21 , its inhibition at 0.3 µM was 79%

// sample CCn1c(=O)cc(N2CCOCC2)c2cc(-n3c(-c4ccc(Cl)cc4)cn(C)c3=O)ccc21 , its inhibition at 0.3 µM was 34%

// sample CCn1c(=O)cc(C2CC2)c2cc(-c3nc(C)[nH]c3-c3ccccc3)ccc21 , its inhibition at 0.3 µM was 68%

// sample CCn1c(=O)cc(N2CCOCC2)c2cc(-c3ccccc3-c3ccccc3)ccc21 , its inhibition at 0.3 µM was 26%

// sample CCn1c(=O)cc(N2CCOCC2)c2cc(N3C(=O)CC[C@H]3c3ccccc3)ccc21 , its inhibition at 0.3 µM was 70%

// sample CCn1c(=O)cc(C(C)C)c2cc(N(C)C(=O)c3ccc(Cl)cc3)ccc21 , its inhibition at 0.3 µM was 44%

// sample CCn1c(=O)cc(C2CCN(C)CC2)c2cc(C(=O)N(C)c3ccc(C)c(F)c3)ccc21 , its inhibition at 0.3 µM was 93%

* * *

Consider the following compounds and their measured inhibition at 0.3 µM readings.
- test-system: BRD2 BD2 (Homo sapiens, UniProt P25440)
- Construct: BRD2 BD2, BRD3 BD2 and BRD4 BD2 (Cisbio); purchased Cisbio
- Sequence (P25440 344-453 limits assumed): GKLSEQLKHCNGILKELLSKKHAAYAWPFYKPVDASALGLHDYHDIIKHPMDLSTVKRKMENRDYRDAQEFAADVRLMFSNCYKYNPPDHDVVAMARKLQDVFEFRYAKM
- experiment-notes: Binding assay, BRD2 BD2 to acetylated histone H4 Peptide-Biotin (EPIgeneous Binding Domain Kit B)
- run-parameters: test compound at 300 nmol/L; read-out: Binding inhibition percentage BRD2 BD2
Numeric only. Scale: %

Past entries and their recorded results:
compound=CCn1c(=O)cc(N2CCOCC2)c2cc(-n3c(-c4ccc(Cl)cc4)cn(C)c3=O)ccc21 unit_label=% readout_number=82
compound=CCn1c(=O)cc(C2CCN(C)CC2)c2cc(C(=O)N(C)c3ccc(C)c(C)c3)ccc21 unit_label=% readout_number=84
compound="CCn1c(=O)cc(C2CCC(O)CC2)c2cc(C(=O)N(C)c3ccc(Cl)cc3)ccc21 (centres unmarked)" unit_label=% readout_number=89
compound=CCn1c(=O)cc(C2CC2)c2cc(-n3c(-c4ccc(Cl)cc4)c[nH]c3=O)ccc21 unit_label=% readout_number=88
compound=CCn1c(=O)cc(C2CCN(C)CC2)c2cc(C(=O)N(C)c3ccc(C)c(Cl)c3)ccc21 unit_label=% readout_number=88

// sample CCn1cc(-c2ccccc2)n(-c2ccc3c(c2)c(N2CCOCC2)cc(=O)n3CC)c1=O , its inhibition at 0.3 µM was 90

// sample CCCCn1cc(-c2ccccc2)n(-c2ccc3c(c2)c(N2CCOCC2)cc(=O)n3CC)c1=O , its inhibition at 0.3 µM was 88

// sample CCn1c(=O)cc(C2CCN(C)CC2)c2cc(C(=O)N(C)c3ccc(C)c(F)c3)ccc21 , its inhibition at 0.3 µM was 81
